Molecular target: mouse ACVR2A (mouse, UniProt P27038 20-135, limits assumed); further: test concentration or dose not given here
Sequence (P27038 20-135 limits assumed): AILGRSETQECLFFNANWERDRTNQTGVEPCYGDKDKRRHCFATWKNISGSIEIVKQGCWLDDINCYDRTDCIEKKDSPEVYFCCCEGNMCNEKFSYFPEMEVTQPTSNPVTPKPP
Assay: ELISA
assay_metric: optical density (OD)
Write the answer as a number in OD, unit excluded.

# example entries with known answers
{"binder": "370_E07 (antibody, V domains shown, VH/VL only) VH: EVQLLESGGGLVQPGGSLRLSCAASGFTFDSYSMNWVRQAPGKGLEWVANINYNGGYTGYADSVKGRFTISRDNSKNTLYLQMNSLRAEDTAVYYCARSATWHDTHLDYWGQGTLVTVSS VL: DIQMTQSPSSLSASVGDRVTITCRASQSILTYLNWYQQKPGKAPKLLIYAATSRASGVPSRFSGSGSGTDFTLTISSLQPEDFATYYCQQSYDNPLTFGGGTKVEIK", "optical density [OD]": 3.5}
{"binder": "374_G07 (antibody, V domains shown, VH/VL only) VH: EVQLLESGGGLVQPGGSLRLSCAASGFTFSSYSMNWVRQAPGKGLEWVSGINYNSGYKSYADSVKGRFTISRDNSKNTLYLQMNSLRAEDTAVYYCARSANWHDTALDYWGQGTLVTVSS VL: DIQMTQSPSSLSASVGDRVTITCRASQSIISYLNWYQQKPGKAPKLLIYAATSRASGVPSRFSGSGSGTDFTLTISSLQPEDFATYYCQQSYDSPLTFGGGTKVEIK", "optical density [OD]": 3.72}

Field: next binder
Return optical density (reported value) for this binder: 367_A01 (antibody, V domains shown, VH/VL only) VH: EVQLLESGGGLVQPGGSLRLSCAASGFTFSSYSMNWVRQAPGKGLEWVASINYNGGYTGYADSVKGRFTISRDNSKNTLYLQMNSLRAEDTAVYYCARSATWHDTHLDYWGQGTLVTVSS VL: DIQMTQSPSSLSASVGDRVTITCRASQSILTYLNWYQQKPGKAPKLLIYAATSRASGVPSRFSGSGSGTDFTLTISSLQPEDFATYYCQQSYDLPLTFGGGTKVEIK 3.28
